- ASSAY_TARGET: IDO1 (Homo sapiens)
- Construct: endogenous in cells
- Sequence (P14902 whole entry): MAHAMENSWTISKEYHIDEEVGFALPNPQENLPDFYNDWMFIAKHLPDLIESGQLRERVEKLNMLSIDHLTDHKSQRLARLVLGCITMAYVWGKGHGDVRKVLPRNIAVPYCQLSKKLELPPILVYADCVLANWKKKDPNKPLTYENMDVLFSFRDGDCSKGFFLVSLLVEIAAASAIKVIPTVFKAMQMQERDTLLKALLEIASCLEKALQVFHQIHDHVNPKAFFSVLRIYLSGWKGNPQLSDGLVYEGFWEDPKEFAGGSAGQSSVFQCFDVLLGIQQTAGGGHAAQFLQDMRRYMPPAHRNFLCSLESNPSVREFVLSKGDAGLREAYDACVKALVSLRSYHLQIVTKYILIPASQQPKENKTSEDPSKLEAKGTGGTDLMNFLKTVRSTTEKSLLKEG
- ASSAY_NOTES: HeLa cell-based IDO1 inhibition assay
- CONDITION: HeLa cells, 100 ng/mL human IFN-γ, 18 h, kynurenine absorbance at 480 nm
IC50 under 10 µM gets True, anything at or over 10 µM gets False.

Worked examples, 7 molecules total:
# MOLECULE, LABEL
rows = [
    ("N#Cc1ccc(F)cc1Cn1cc(-c2cccc(C(=O)Nc3ccc4c(c3)NC(=O)CO4)c2)nn1 [Compound 14d]", "False"),
    ("O=C1COc2ccc(NC(=O)c3cccc(-c4cn(Cc5ccc(F)cc5)nn4)c3)cc2N1 [Compound 14i]", "False"),
    ("O=C1COc2ccc(NC(=O)c3cccc(-c4cn(Cc5ccc(Br)cc5)nn4)c3)cc2N1 [Compound 14a]", "False"),
    ("O=C1COc2ccc(NC(=O)c3cccc(-c4cn(Cc5ccccc5F)nn4)c3)cc2N1 [Compound 14j]", "False"),
    ("O=C1COc2ccc(NC(=O)c3cccc(-c4cn(Cc5cc(F)c(F)c(F)c5)nn4)c3)cc2N1 [Compound 14c]", "False"),
    ("O=C1COc2ccc(NC(=O)c3cccc(-c4cn(Cc5c(F)cccc5Cl)nn4)c3)cc2N1 [Compound 14e]", "True"),
    ("Cc1cc(C)cc(Cn2cc(-c3cccc(C(=O)Nc4ccc5c(c4)NC(=O)CO5)c3)nn2)c1 [Compound 14b]", "False"),
]

Q: Quick check: does O=C1COc2ccc(NC(=O)c3cccc(-c4cn(Cc5ccc(F)c(Cl)c5)nn4)c3)cc2N1 [Compound 14f] have IC50 under 10 µM?
Result: True
